test system: ACHN renal; assay: NCI tumour cell line growth inhibition, 48 h
The reader will find reported TGI values listed item by item below.

Cc1c(CN)c(C)c(CN)c(C)c1CN : > 100 µM
CN1N=C(c2ccncc2)OC1c1ccc(Cl)cc1Cl (centres undefined) : > 100 µM
CCC(=O)Oc1cc(/C=C/C(=O)O[C@H]2C[C@H]3CN4CCc5c([nH]c6cc(OC)ccc56)[C@@H]4C[C@@H]3[C@@H](C(=O)OC)[C@@H]2OC)ccc1OC : > 100 µM
Cc1ccc(C2C(Cl)C(=O)N2n2cnc3ccccc3c2=O)cc1 (centres undefined) : > 100 µM
C=C1C[C@H](O)[C@H]2C(C[Se]c3ccccc3)C(=O)O[C@@H]2[C@H]2[C@H](C)C(O)C[C@@H]12 (some centres undefined) : 76.3 µM
COc1cc2c(c(OC)c1)C(C)=NC(C)C2 (centres undefined) : > 100 µM
C=C(C)C(=O)OC1C[C@H](COC(C)=O)C2CC=C(C)C2C2OC(=O)C(=C)[C@H]12 (some centres undefined) : 11.8 µM
O=C(CCl)Nc1ccc2c(Nc3cc(O)ccc3Cl)ncnc2c1 : 6.52 µM

Lab book: TGI of CO[C@@H]1[C@H](O)CC[C@]2(CO2)[C@H]1[C@@]1(C)O[C@@H]1CC=C(C)C noted as > 200 µM

Lab book: TGI of c1cc2ccc3cc2cc1CNCCN1CCNCc2ccc4ccc(cc4c2)CNCCN(CCNC3)CCNCc2ccc3ccc(cc3c2)CNCC1 noted as > 100 µM

Lab book: TGI of CCN(C(=O)N[C@@H](Cc1ccccc1)C(=O)N[C@@H](CC(C)C)C(=O)NC)c1ccccc1 noted as > 100 µM

Lab book: TGI of CC1(C)CC2(S(=O)(=O)c3ccccc3)ON1CC2S(=O)(=O)c1ccccc1 (centres undefined) noted as > 100 µM

Lab book: TGI of O=C1C=CC2(C=C1)CCC(=O)O2 noted as 34.2 µM

Lab book: TGI of COC(=O)[C@H](Cc1c[nH]c2ccccc12)NC(=O)OCC1OC(n2cc(C)c(=O)[nH]c2=O)CC1N=[N+]=[N-] (some centres undefined) noted as > 100 µM

Lab book: TGI of O=c1cc(N2CCOCC2)oc2c(-c3ccc4c(c3)OCCO4)csc12 noted as 10.7 µM

Lab book: TGI of Nc1c(C(=O)Nc2ccccc2)sc2nc3c(cc12)C(O)CCC3 (centres undefined) noted as > 100 µM

Lab book: TGI of CC[C@H](CC[C@@H](C)[C@H]1CC[C@H]2[C@@H]3CC=C4C[C@@H](O)CC[C@]4(C)[C@H]3CC[C@]12C)C(C)C noted as > 100 µM

Lab book: TGI of COc1ccc(C(=O)/C=C/c2ccc(OCc3ccc(Cl)cc3)cc2)cc1OC noted as > 1000 µM

Lab book: TGI of CC(O)C(C(=O)O)N(CC1(O)OCC(O)C(O)C1O)N=O (centres undefined) noted as > 100 µM

----------
system: M19-MEL melanoma; assay: NCI tumour cell line growth inhibition, 48 h
The reader will find reported TGI values listed item by item below.

Illustrative cases are given below, each with its answer.
CCOC1c2cc(OC)c(OC)cc2-c2ccc3ccccc3c2N1C (centres undefined) : 25.9 µM
C=CCN1C(=O)C(=O)N(CC=C)C(=O)C1=O : > 100 µM
CSC1(C)CC2C(CC1N1CCOCC1)C2(C)C (centres undefined) : > 100 µM
O=C1C(C(Nc2ccccc2)c2ccccc2)=C([O-])c2ccccc21.O=C1C(C(Nc2ccccc2)c2ccccc2)=C([O-])c2ccccc21.[Co+2] (centres undefined) : > 100 µM
Cn1ccnc1Cn1cc(-c2cccc(-c3cn[nH]c3)c2)cn1 : > 100 µM

Lab book: TGI of COc1nc(C(=O)O)c(Cl)c(OC)c1Cl noted as > 100 µM

Lab book: TGI of C/C1=C/C2OC(=O)C3(C)C2C(CC2(C)OC1=CC2=O)OC3(O)C(C)C (centres undefined) noted as > 100 µM

Lab book: TGI of COc1ccc(O)cc1C=O noted as > 100 µM

Lab book: TGI of C[N+](C)(C)CC1CCc2ccccc2C1=O (centres undefined) noted as 30.8 µM

----------
The reader will find reported TGI values listed item by item below.
tested on: NCI-H23 lung; experiment: NCI tumour cell line growth inhibition, 48 h

COc1nc(C(=O)O)c(Cl)c(OC)c1Cl : > 100 µM
c1ccc(C2=NOC3COc4ccccc4OCC23)cc1 (stereo not drawn) : > 100 µM
CC1(SCC(N)C(=O)O)CC(=O)NC1=O (stereo not drawn) : > 100 µM

Bench note, NCI-H23 lung: entry O=C1c2ccccc2C2(O)Nc3c(ccc4ccccc34)C12O (stereo not drawn) , its TGI = > 100 µM

Bench note, NCI-H23 lung: entry O=C(O)c1cc2cc(OCc3ccccc3)ccc2[nH]1 , its TGI = > 100 µM

Bench note, NCI-H23 lung: entry C[C@]12CC[C@@H]3c4ccc(OS(N)(=O)=O)cc4CC[C@H]3[C@@H]1CCC2=O , its TGI = > 100 µM

Bench note, NCI-H23 lung: entry O=C(Nc1ccc(-n2ccc3c(NC(=O)c4ccccc4)nccc32)cc1)c1cccc(C(F)(F)F)c1 , its TGI = > 36.1 µM

Bench note, NCI-H23 lung: entry CCCCCCC(C)c1ccc2c(c1)C(=O)c1nc3ccncc3c(=O)n1-2 (stereo not drawn) , its TGI = > 31.4 µM

----------
tested on: OVCAR-8 ovarian; assay: NCI tumour cell line growth inhibition, 48 h; in the data active means GI50 below about 0.43 µM; inactive means the rest
Field 'call' accepts 1.0 = active, 0.0 = inactive

A selection of reference data follows.
O=C1N=C(c2c(-c3[nH]c(=O)c4ccc(Br)cc4c3O)c(O)c3ccccc3c2O)C(=O)c2cc(Br)ccc21 : 0.0
COc1cc2c3c(n(CCCN(C)C)c(=O)c2cc1OC)-c1cc2c(cc1C3=O)OCO2 : 0.0
Cc1ccnc2[nH]c(-c3cccc4ccccc34)cc(=O)c12 : 1.0
COc1ccc2oc(=O)cc(C3c4ccc([nH]4)C(c4cc(=O)oc5ccc(OC)cc45)c4ccc([nH]4)C(c4cc(=O)oc5ccc(OC)cc45)c4ccc([nH]4)C(c4cc(=O)oc5ccc(OC)cc45)c4ccc3[nH]4)c2c1 (centres undefined) : 0.0
C=CCCCC(=O)CCC(=O)OCC1O[C@@H](O[C@@H]2C(O)[C@@H](OC(C)=O)C(C)O[C@H]2O[C@H](CC=C)CCCCC)C(O)[C@@H](OC(=O)/C(C)=C/C)[C@@H]1OC(=O)/C=C/c1ccccc1 (some centres undefined) : 1.0

Task: What classification did O=C(N/N=C\c1cc(Cl)ccc1O)c1ccncc1 end up with in this test?
Output: 0.0

Task: What classification did Clc1ccc(CN2COc3c(ccc4cccnc34)C2)cc1Cl end up with in this test?
Output: 0.0

Task: What classification did O=C(O)[C@@H]1CCCN1Cc1cc2cc3c(cc2c2cc(OCc4ccccc4)ccc12)OCO3 end up with in this test?
Output: 0.0

Task: What classification did COC(=O)N1c2ccc3c(nc(Cc4ccccc4)n3[C@H]3CCC[C@H](C(=O)O)C3)c2CC[C@@H]1C end up with in this test?
Output: 0.0

----------
system: BT-549 breast; test: NCI tumour cell line growth inhibition, 48 h
The reader will find reported TGI values listed item by item below.

Bench note, BT-549 breast: entry C[n+]1cn(-c2ccc([N+](=O)[O-])cn2)c2ccccc21 , its TGI = > 100 µM

Bench note, BT-549 breast: entry COC(=O)N1c2ccc3c(nc(Cc4ccccc4)n3[C@H]3CCC[C@H](C(=O)O)C3)c2CC[C@@H]1C , its TGI = > 100 µM

Bench note, BT-549 breast: entry Cc1ccc(C(=O)CCl)o1 , its TGI = > 10 µM

Bench note, BT-549 breast: entry Cc1ccncc1N1CCN(c2ccnc(Cl)c2)C1=O , its TGI = > 100 µM

----------
system: HOP-92 NSCLC; assay: NCI tumour cell line growth inhibition, 48 h
Measurement Name: TGI

O=C1N=C(c2c(-c3[nH]c(=O)c4ccc(Br)cc4c3O)c(O)c3ccccc3c2O)C(=O)c2cc(Br)ccc21 : > 16.7 µM
CC(=O)Oc1cc2c[n+](C)c3c4cc(OC(C)=O)c(OC(C)=O)cc4ccc3c2cc1OC(C)=O : > 100 µM
C=CCNC(=O)NNC(O)(C(=O)OCC)C(F)(F)F (stereo unspecified) : > 100 µM
CC(C)(C)c1cc(C(C)(C)C)c2c(c1O)OC(=O)CS2 : > 47.7 µM
Cc1c(C(=N)N)oc2ccccc12 : > 100 µM

Could you now consider this next compound?
Lab book: TGI of CCCCCCCCCC1CC(=O)Oc2cccc(O)c21 (stereo unspecified) noted as > 70.3 µM
